Provenance of the data: patent US20240254222A1

Kindly supply the reported VAL norm to TPP-9809 (1 to 1 ratio) values for the records listed here.
# MEASURED_ON: T1, Human Semaphorin3A-Fc (R&D Systems), TPP-13211 (human)
# T1 construct: R&D Systems 1250-S3; also called recombinant human Sema3A-Fc chimera
# ASSAY_INFO: competition ELISA on coated TPP-13211, competitor biotinylated TPP-15374
Answer as a number with no unit attached.

Specify VAL norm to TPP-9809 (1 to 1 ratio) for TPP-25257 (antibody, human IgG1, lambda, V domains shown) VH: EVQLLESGGGLVQPGGSLRLSCAASGFDFDSYEMNWVRQAPGKGLEWVSGISWNSGWIDYADSVKGRFTISRDNSKNTLYLQMNSLRAEDTAVYYCARSGYSSSWFDPDFDYWGQGTLVTVSS VL: QSVLTQPPSVSGAPGQRVTISCTGSSSNIGAGYDVHWYQQLPGTAPKLLIYGNSNRPSGVPDRFSGSKSGTSASLAITGLQAEDEADYYCQSYAGPNPYVVFGGGTKLTVLG and stop. 0.36

Specify VAL norm to TPP-9809 (1 to 1 ratio) for TPP-25448 (antibody, human IgG1, lambda, V domains shown) VH: EVQLLESGGGLVQPGGSLRLSCAASGFTFDSYEMNWVRQAPGKGLEWVSGISWNSGWIDYADSVKGRFTISRDNSKNTLYLQMNSLRAEDTAVYYCARSGYSSSWFDPDFDYWGQGTLVTVSS VL: QSVLTQPPSVSGAPGQRVTISCTGSSSDIGAGYDVHWYQQLPGTAPKLLIYGNSNRPSGVPDRFSGSKSGTSASLAITGLQAEDEADYYCQSYAGINPYVVFGGGTKLTVLG and stop. 0.47

Specify VAL norm to TPP-9809 (1 to 1 ratio) for TPP-25655 (antibody, human IgG1, lambda, V domains shown) VH: EVQLLESGGGLVQPGGSLRLSCAASGFDFSSYEMNWVRQAPGKGLEWVSGISWNSGWIDYADSVKGRFTISRDNSKNTLYLQMNSLRAEDTAVYYCARSGYSSSWFDPDFDYWGQGTLVTVSS VL: QSVLTQPPSVSGAPGQRVTISCTGSSSNIGAGYDVHWYQQLPGTAPKLLIYGASNRPSGVPDRFSGSKSGTSASLAITGLQAEDEADYYCSSYEGPNPYVVFGGGTKLTVLG and stop. 0.39
